System: HEK-293T
experimental_details: Multiplex assay against HEK293T
Assay type: toxicity, cell-based
condition_parameters: human, 48 h, 10 µM, compound concentration 10 uM, replicate 1
Property: Population Mitotic Cells (%); scope: individual molecules
quantity: Population Mitotic Cells (%)

molecule | measured_result
Cc1[nH]c(/C=C2\C(=O)Nc3ccc(S(=O)(=O)N(C)c4cccc(Cl)c4)cc32)c(C)c1C(=O)N1CCN(C)CC1 | 7
Cc1csc2c(N[C@@H](C)CN3CCN(S(=O)(=O)c4ccc(Cl)c(Cl)c4)CC3)ncnc12 | 52
O=C1NCN(c2ccccc2)C12CCN(CCCOc1ccc(F)cc1)CC2 [SPIRAMIDE] | 40
C=CC(=O)Nc1cccc(C(=O)Nc2ccc(Nc3cc(-c4[nH]c(SC)nc4C)ccn3)cc2)c1 | 47
Cc1c(-c2ccc(O)cc2)n(Cc2ccc(OCCN3CCCCCC3)cc2)c2ccc(O)cc12 [BAZEDOXIFENE] | 8
CN(C)C(=O)/C(C#N)=C/c1ccc(-c2nc3cnc4[nH]ccc4c3n2C2CCCCC2)o1 | 53
CN(C)C(=O)N[C@H]1CC[C@H](CCN2CCN(c3cccc(Cl)c3Cl)CC2)CC1.Cl [CARIPRAZINE HYDROCHLORIDE] | 21
CC[C@H](C)C(=O)O[C@H]1C[C@@H](C)C=C2C=C[C@H](C)[C@H](CC[C@@H]3C[C@@H](O)CC(=O)O3)[C@H]21 [LOVASTATIN] | 57
CN1CCC[C@@H]1CCO[C@](C)(c1ccccc1)c1ccc(Cl)cc1.O=C(O)/C=C/C(=O)O [CLEMASTINE FUMARATE] | 13
CN(C)CC#Cc1ccc(OCCCc2sc(N3CCc4cccc(C(=O)Nc5nc6ccccc6s5)c4C3)nc2C(=O)O)c(F)c1 [A-1155463] | 59
Cn1cc(-c2[nH]c3cc(NC(=O)[C@H](N)C4CCCCC4)cc4c3c2C=NNC4=O)cn1 | 27
C[C@@]1(C(=O)Nc2ccc(F)nc2)CCCN1c1nc(Nc2cc(C3CC3)n[nH]2)c2cccn2n1 [BMS-754807] | 34
CN1CCN(CCOc2cc(OC3CCOCC3)c3c(Nc4c(Cl)ccc5c4OCO5)ncnc3c2)CC1 [SARACATINIB] | 26
CCOCCn1cc(C(=O)Nc2ccc(-n3nc(-c4cccnc4)cc3C(F)(F)F)cn2)ccc1=O [BI 1935] | 40
OC1(c2ccc(Cl)cc2)CCN(Cc2c[nH]c3ccccc23)CC1 | 28
CN1CCN(c2ccc(OC(F)(F)F)c(Nc3ncc4c(n3)-c3c(c(C(N)=O)nn3CCO)CC4)c2)CC1 [ONVANSERTIB] | 35

====

Test system: Fibroblast
experimental_details: Multiplex assay against human fibroblast
Format: toxicity, cell-based
condition_parameters: 12 h, 10 µM, compound concentration 10 uM, replicate 2

compound | target_or_system | Population Normal (%)
CN1CCN(CCOc2cc(OC3CCOCC3)c3c(Nc4c(Cl)ccc5c4OCO5)ncnc3c2)CC1 | Fibroblast | 92
CN(C)C(=O)/C(C#N)=C/c1ccc(-c2nc3cnc4[nH]ccc4c3n2C2CCCCC2)o1 | Fibroblast | 45
CC(C)NCC(O)COc1ccc(CCOCC2CC2)cc1.Cl (centres undefined) [BETAXOLOL HYDROCHLORIDE] | Fibroblast | 92
CC[C@H](C)C(=O)O[C@H]1C[C@@H](C)C=C2C=C[C@H](C)[C@H](CC[C@@H]3C[C@@H](O)CC(=O)O3)[C@H]21 | Fibroblast | 91
